Measured percent viability of individual entries
System: MCF10A
Assay: percent viability (nuclei count relative to siNT); higher = more viable cells
Settings: 20 nM; 72 h
MEASURED PARAMETER: percent viability (%)

GAAAGCGCUUCCCUUUGCUGGA [hsa-miR-518a-3p] : 59.1
UUUCAAGCCAGGGGGCGUUUUUC [hsa-miR-498] : 61
AACUCUGUCUUCACUCAUGAGU [hsa-miR-3664-5p] : 60.5
CUAUACAACUUACUACUUUCCC [hsa-miR-98-3p] : 59.1

----------
System: MCF10A
Assay: percent viability (nuclei count relative to siNT); higher = more viable cells
Settings: 20 nM; 72 h
// boundary case: percent viability equal to 40% maps to Not met; strictly smaller maps to Met

ACUGGACUUGGAGUCAGGA [hsa-miR-378e] : Met
CUCCUGAGCCAUUCUGAGCCUC [hsa-miR-1200] : Not met
CUCUGGGAAAUGGGACAG [hsa-miR-4314] : Met
AGAGCUCACAGCUGUCCUUCUCUA [hsa-miR-3670] : Met
CAAAAACUGCAGUUACUUUUGC [hsa-miR-548ah-3p] : Not met
UGAAGGUCUACUGUGUGCCAGG [hsa-miR-493-3p] : Met
UUGCCAUGUCUAAGAAGAA [hsa-miR-4659b-5p] : Not met
CCCCGGGAACGUCGAGACUGGAGC [hsa-miR-1247-3p] : Met
GAUCUCACUUUGUUGCCCAGG [hsa-miR-1285-5p] : Not met
GGCUGAGUGGGGUUCUGACUCC [hsa-miR-8077] : Met
UACAAGUCAGGAGCUGAAGCAG [hsa-miR-6882-5p] : Not met
CAAAACGUGAGGCGCUGCUAU [hsa-miR-424-3p] : Not met
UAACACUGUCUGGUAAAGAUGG [hsa-miR-141-3p] : Not met
UGGGGCGGAGCUUCCGGAG [hsa-miR-3180] : Met
CGCGCCUGCAGGAACUGGUAGA [hsa-miR-6720-3p] : Not met
AAAAACUGCAAUCACUUUUGC [hsa-miR-548az-3p] : Not met
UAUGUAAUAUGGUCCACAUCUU [hsa-miR-380-3p] : Not met
CGUGGAUUGUCUGGAUGCAU [hsa-miR-8056] : Not met
ACUCAAAACCCUUCAGUGACUU [hsa-miR-616-5p] : Not met
